Source listed as paper PMC10038056.

- TESTED_ON: hCA XII (Homo sapiens, UniProt O43570)
- Sequence (O43570 25-354): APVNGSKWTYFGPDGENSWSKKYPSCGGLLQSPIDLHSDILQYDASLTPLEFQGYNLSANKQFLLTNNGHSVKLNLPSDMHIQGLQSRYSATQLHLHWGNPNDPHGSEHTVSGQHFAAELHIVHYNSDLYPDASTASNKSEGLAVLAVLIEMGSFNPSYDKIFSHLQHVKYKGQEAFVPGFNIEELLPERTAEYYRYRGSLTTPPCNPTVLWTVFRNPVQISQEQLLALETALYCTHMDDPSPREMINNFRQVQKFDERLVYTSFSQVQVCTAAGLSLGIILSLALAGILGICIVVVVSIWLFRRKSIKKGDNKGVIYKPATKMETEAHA
- RUN_DESCRIPTION: Stopped-flow CO2 hydrase assay, hCA XII
- SETTINGS: in µM
PROPERTY_MEASURED: Ki

# COMPOUND, PROPERTY_MEASURED, MEAS_VALUE
measured = [
    ("CC(C)(C)c1ccc(C2=C/C(=C\\c3ccc(Cl)cc3)C(=O)N2CCc2ccc(S(N)(=O)=O)cc2)cc1 [Compound 3s]", "Ki", "0.34 µM"),
]

---

- TESTED_ON: UniProt:O43570
- RUN_DESCRIPTION: Stopped-flow CO2 hydrase assay, hCA XII
- SETTINGS: stopped flow, mean from 3 assays, errors 5–10%
pKi: −log10 of the molar value.
PROPERTY_MEASURED: pKi

# COMPOUND, MEAS_VALUE
rows = [
    ("NS(=O)(=O)c1ccc(CCN2C(=O)/C(=C/c3ccc(Cl)cc3)C=C2c2ccc(Cl)cc2)cc1 [Compound 3o]", 7.10),
    ("Cc1ccc(C2=C/C(=C\\c3ccc(Cl)cc3)C(=O)N2CCc2ccc(S(N)(=O)=O)cc2)cc1 [Compound 3g]", 7.13),
    ("NS(=O)(=O)c1ccc(CCN2C(=O)/C(=C/c3ccc(Br)cc3)C=C2c2ccc(Cl)cc2)cc1 [Compound 3p]", 7.07),
    ("CC(C)(C)c1ccc(C2=C/C(=C\\c3ccccc3)C(=O)N2CCc2ccc(S(N)(=O)=O)cc2)cc1 [Compound 3q]", 6.40),
    ("NS(=O)(=O)c1ccc(CCN2C(=O)/C(=C/c3ccc(F)cc3)C=C2c2ccccc2)cc1 [Compound 3b]", 7.34),
]

---

- TESTED_ON: hCA I (Homo sapiens, UniProt P00915)
- Sequence (P00915 whole entry): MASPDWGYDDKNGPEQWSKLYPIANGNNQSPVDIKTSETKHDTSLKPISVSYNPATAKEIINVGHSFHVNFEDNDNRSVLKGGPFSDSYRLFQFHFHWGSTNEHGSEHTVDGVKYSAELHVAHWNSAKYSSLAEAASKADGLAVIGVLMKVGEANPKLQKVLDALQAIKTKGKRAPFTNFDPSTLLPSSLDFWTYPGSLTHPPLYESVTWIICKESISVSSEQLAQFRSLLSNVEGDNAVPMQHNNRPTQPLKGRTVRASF
- RUN_DESCRIPTION: Stopped-flow CO2 hydrase assay, hCA I
- SETTINGS: in µM
Reported Ki values for the following compounds.
PROPERTY_MEASURED: Ki

# SMILES_STRUCTURE, MEAS_VALUE
records = [
    ("CC(C)(C)c1ccc(C2=C/C(=C\\c3ccccc3)C(=O)N2CCc2ccc(S(N)(=O)=O)cc2)cc1", "8.5 µM"),
    ("CC(C)(C)c1ccc(C2=C/C(=C\\c3ccc(Br)cc3)C(=O)N2CCc2ccc(S(N)(=O)=O)cc2)cc1", "9.3 µM"),
]

---

// melting point lookup, one value per entry
PROPERTY_MEASURED: melting point

# SMILES_STRUCTURE, PROPERTY_MEASURED, MEAS_VALUE
data = [
    ("NS(=O)(=O)c1ccc(CCN2C(=O)/C(=C/c3ccc(Br)cc3)C=C2c2ccccc2)cc1", "melting point", "214 to 215 °C"),
    ("CCc1ccc(C2=C/C(=C\\c3ccc(Cl)cc3)C(=O)N2CCc2ccc(S(N)(=O)=O)cc2)cc1", "melting point", "186 to 187 °C"),
    ("Cc1ccc(C2=C/C(=C\\c3ccccc3)C(=O)N2CCc2ccc(S(N)(=O)=O)cc2)cc1", "melting point", "189 to 190 °C"),
    ("CC(C)(C)c1ccc(C2=C/C(=C\\c3ccc(Br)cc3)C(=O)N2CCc2ccc(S(N)(=O)=O)cc2)cc1", "melting point", "204 to 205 °C"),
    ("NS(=O)(=O)c1ccc(CCN2C(=O)/C(=C/c3ccc(Cl)cc3)C=C2c2ccccc2)cc1", "melting point", "192 to 193 °C"),
    ("Cc1ccc(C2=C/C(=C\\c3ccc(F)cc3)C(=O)N2CCc2ccc(S(N)(=O)=O)cc2)cc1", "melting point", "196 to 197 °C"),
    ("CCc1ccc(C2=C/C(=C\\c3ccc(F)cc3)C(=O)N2CCc2ccc(S(N)(=O)=O)cc2)cc1", "melting point", "185 to 186 °C"),
]

---

PROPERTY_MEASURED: melting point

# SMILES_STRUCTURE, MEAS_VALUE
records = [
    ("Cc1ccc(C2=C/C(=C\\c3ccc(Br)cc3)C(=O)N2CCc2ccc(S(N)(=O)=O)cc2)cc1", "233 to 234 °C"),
    ("NS(=O)(=O)c1ccc(CCN2C(=O)/C(=C/c3ccccc3)C=C2c2ccc(Cl)cc2)cc1", "189 to 190 °C"),
    ("CCc1ccc(C2=C/C(=C\\c3ccc(Br)cc3)C(=O)N2CCc2ccc(S(N)(=O)=O)cc2)cc1", "188 to 189 °C"),
    ("CC(C)(C)c1ccc(C2=C/C(=C\\c3ccc(F)cc3)C(=O)N2CCc2ccc(S(N)(=O)=O)cc2)cc1", "187 to 188 °C"),
    ("NS(=O)(=O)c1ccc(CCN2C(=O)/C(=C/c3ccc(Br)cc3)C=C2c2ccc(Cl)cc2)cc1", "176 to 177 °C"),
    ("NS(=O)(=O)c1ccc(CCN2C(=O)/C(=C/c3ccc(F)cc3)C=C2c2ccc(Cl)cc2)cc1", "159 to 160 °C"),
]

---

Quick list: melting point per entry.

# COMPOUND, melting point
rows = [
    ("CC(C)(C)c1ccc(C2=C/C(=C\\c3ccc(Cl)cc3)C(=O)N2CCc2ccc(S(N)(=O)=O)cc2)cc1 [Compound 3s]", "196 to 197 °C"),
    ("NS(=O)(=O)c1ccc(CCN2C(=O)/C(=C/c3ccc(F)cc3)C=C2c2ccccc2)cc1 [Compound 3b]", "170 to 171 °C"),
    ("NS(=O)(=O)c1ccc(CCN2C(=O)/C(=C/c3ccc(Cl)cc3)C=C2c2ccc(Cl)cc2)cc1 [Compound 3o]", "163 to 164 °C"),
    ("CC(C)(C)c1ccc(C2=C/C(=C\\c3ccccc3)C(=O)N2CCc2ccc(S(N)(=O)=O)cc2)cc1 [Compound 3q]", "183 to 184 °C"),
    ("Cc1ccc(C2=C/C(=C\\c3ccc(Cl)cc3)C(=O)N2CCc2ccc(S(N)(=O)=O)cc2)cc1 [Compound 3g]", "224 to 225 °C"),
    ("CCc1ccc(C2=C/C(=C\\c3ccccc3)C(=O)N2CCc2ccc(S(N)(=O)=O)cc2)cc1 [Compound 3i]", "183 to 184 °C"),
    ("NS(=O)(=O)c1ccc(CCN2C(=O)/C(=C/c3ccccc3)C=C2c2ccccc2)cc1 [Compound 3a]", "167 to 168 °C"),
]

---

- TESTED_ON: hCA I (Homo sapiens)
- RUN_DESCRIPTION: Stopped-flow CO2 hydrase assay, hCA I
- SETTINGS: stopped flow, mean from 3 assays, errors 5–10%
pKi: −log10 of the molar value.

# SMILES_STRUCTURE, TESTED_ON, pKi
measured = [
    ("NS(=O)(=O)c1ccc(CCN2C(=O)/C(=C/c3ccc(Cl)cc3)C=C2c2ccccc2)cc1", "hCA I (Homo sapiens)", 5.49),
    ("CCc1ccc(C2=C/C(=C\\c3ccc(Br)cc3)C(=O)N2CCc2ccc(S(N)(=O)=O)cc2)cc1", "hCA I (Homo sapiens)", 5.17),
    ("NS(=O)(=O)c1ccc(CCN2C(=O)/C(=C/c3ccc(F)cc3)C=C2c2ccc(Cl)cc2)cc1", "hCA I (Homo sapiens)", 5.85),
    ("CC(C)(C)c1ccc(C2=C/C(=C\\c3ccc(Br)cc3)C(=O)N2CCc2ccc(S(N)(=O)=O)cc2)cc1", "hCA I (Homo sapiens)", 5.03),
]

---

Quick note: these are log10 of Ki numbers for system: UniProt P00918
PROPERTY_MEASURED: log10 of Ki (log10 of the value in nM)

# SMILES_STRUCTURE, log10 of Ki
records = [
    ("NS(=O)(=O)c1ccc(CCN2C(=O)/C(=C/c3ccccc3)C=C2c2ccc(Cl)cc2)cc1", 2.89),
    ("NS(=O)(=O)c1ccc(CCN2C(=O)/C(=C/c3ccc(Br)cc3)C=C2c2ccc(Cl)cc2)cc1", 3.59),
    ("CCc1ccc(C2=C/C(=C\\c3ccccc3)C(=O)N2CCc2ccc(S(N)(=O)=O)cc2)cc1", 2.95),
    ("CC(C)(C)c1ccc(C2=C/C(=C\\c3ccc(F)cc3)C(=O)N2CCc2ccc(S(N)(=O)=O)cc2)cc1", 3.10),
    ("NS(=O)(=O)c1ccc(CCN2C(=O)/C(=C/c3ccc(Cl)cc3)C=C2c2ccccc2)cc1", 2.86),
    ("CC(C)(C)c1ccc(C2=C/C(=C\\c3ccc(Br)cc3)C(=O)N2CCc2ccc(S(N)(=O)=O)cc2)cc1", 3.67),
    ("NS(=O)(=O)c1ccc(CCN2C(=O)/C(=C/c3ccc(F)cc3)C=C2c2ccccc2)cc1", 1.91),
    ("CCc1ccc(C2=C/C(=C\\c3ccc(Br)cc3)C(=O)N2CCc2ccc(S(N)(=O)=O)cc2)cc1", 3.57),
    ("Cc1ccc(C2=C/C(=C\\c3ccc(Br)cc3)C(=O)N2CCc2ccc(S(N)(=O)=O)cc2)cc1", 3.27),
    ("Cc1ccc(C2=C/C(=C\\c3ccccc3)C(=O)N2CCc2ccc(S(N)(=O)=O)cc2)cc1", 2.67),
]
